Values were extracted from patent US9133186B2.

Target or system: human AMPK α1β1γ1 enzyme (Homo sapiens, UniProt Q13131+Q9Y478)
Construct: purchased Carna Biosciences, Inc
Sequence (Q13131 10-559 limits assumed): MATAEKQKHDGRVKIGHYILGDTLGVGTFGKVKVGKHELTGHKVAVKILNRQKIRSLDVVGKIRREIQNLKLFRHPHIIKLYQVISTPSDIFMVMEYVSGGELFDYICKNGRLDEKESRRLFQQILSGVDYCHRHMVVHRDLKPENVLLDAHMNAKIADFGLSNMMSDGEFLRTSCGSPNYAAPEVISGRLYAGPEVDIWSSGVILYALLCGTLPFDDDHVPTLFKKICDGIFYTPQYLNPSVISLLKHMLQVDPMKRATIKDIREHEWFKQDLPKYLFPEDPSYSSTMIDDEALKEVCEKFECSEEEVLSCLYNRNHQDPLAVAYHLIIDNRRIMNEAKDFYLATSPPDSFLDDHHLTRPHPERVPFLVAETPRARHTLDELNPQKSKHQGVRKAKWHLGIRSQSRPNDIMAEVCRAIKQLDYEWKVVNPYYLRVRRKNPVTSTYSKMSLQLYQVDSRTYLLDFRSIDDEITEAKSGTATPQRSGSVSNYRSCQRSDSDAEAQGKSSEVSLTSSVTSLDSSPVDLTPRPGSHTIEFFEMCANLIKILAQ
Sequence (Q9Y478 whole entry): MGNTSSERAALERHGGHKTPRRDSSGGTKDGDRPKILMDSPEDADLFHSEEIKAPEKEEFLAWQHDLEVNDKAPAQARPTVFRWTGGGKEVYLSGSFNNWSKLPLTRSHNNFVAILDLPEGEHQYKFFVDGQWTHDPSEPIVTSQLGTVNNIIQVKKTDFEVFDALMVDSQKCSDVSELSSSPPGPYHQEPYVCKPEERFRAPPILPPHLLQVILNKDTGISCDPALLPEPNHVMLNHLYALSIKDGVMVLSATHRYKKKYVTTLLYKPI
Sequence (P54619 whole entry partner): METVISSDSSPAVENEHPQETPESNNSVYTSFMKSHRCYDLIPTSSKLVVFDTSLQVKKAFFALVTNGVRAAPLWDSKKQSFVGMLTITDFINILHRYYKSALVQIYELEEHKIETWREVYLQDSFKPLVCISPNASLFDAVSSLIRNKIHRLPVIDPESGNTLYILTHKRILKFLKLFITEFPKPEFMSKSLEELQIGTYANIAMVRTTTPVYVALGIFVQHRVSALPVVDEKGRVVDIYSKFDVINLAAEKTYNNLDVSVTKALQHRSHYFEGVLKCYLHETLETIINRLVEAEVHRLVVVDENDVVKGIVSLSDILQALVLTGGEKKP
Protocol: AMPK activator evaluation, Test Example 1 (mobility shift, FL-Peptide 7)
Format: biochemical
Reported conditions: human AMPK α1β1γ1, control without compound = 100%; read-out: Emax (maximum rate of increase in activity within the measurement range)
Text: […] To detect phosphorylated fluorescent substrates, the reaction liquid was applied to a measuring device, LabChip EZ Reader II manufactured by Caliper Life Science, Inc., for detecting fluorescence by using differences in mobility due to differences in charge. […]
Readout type: Emax (%)
Lab book: enter the figure in %, no units written.

Prompt: Give reported Emax for `CC(=O)NC(C)(C)c1ccc(Oc2nc3nc(-c4ccc(C5(CO)CCC5)cc4)c(Cl)cc3[nH]2)cc1` (human AMPK α1β1γ1 enzyme (Homo sapiens, UniProt Q13131+Q9Y478))
Completion: 224

Prompt: Report Emax on human AMPK α1β1γ1 enzyme (Homo sapiens, UniProt Q13131+Q9Y478) for this entry: `CC(=O)NC(C)(C)c1ncc(Oc2nc3nc(-c4ccc(N5CCOCC5)cc4)c(Cl)cc3[nH]2)cn1`
Completion: 255

Prompt: With human AMPK α1β1γ1 enzyme (Homo sapiens, UniProt Q13131+Q9Y478) as the test system, provide measured Emax for this compound: `Cc1ccc(Oc2nc3nc(-c4cccc(O)c4)c(Cl)cc3[nH]2)cc1C(=O)O`
Completion: 297

Prompt: Quote human AMPK α1β1γ1 enzyme (Homo sapiens, UniProt Q13131+Q9Y478) Emax for entry `CC(C)(NC(=O)CO)c1ccc(Oc2nc3nc(-c4ccc(N5CCOCC5)cc4)c(Cl)cc3[nH]2)cc1` .
Completion: 225
